TARGET: T1, recombinant human domain 1-3His6 of the cation-independent mannose-6-phosphate receptor (human, UniProt P11717 41-467)
T1 construct: Biotinylated (NHS-PEG4-biotin) for BLI; Glycosylated; also called hDom1-3His6; hCI-M6PRD1-D3
EXPERIMENTAL DETAILS: BLI exp 2, dissoc pH 6
Description: For each of the 11 anti-CI-M6PR VHHs, a biolayer interferometry (BLI) experiment was performed in which the hDom₁₋₃His₆ was biotinylated and coupled to streptavidin biosensor tips. Afterwards, the tips were incubated with serially diluted VHHs during the association phase and dissociation was performed at pH 7.4. Similarly, dissociation was performed at pH 7.0, pH 6.0 and pH 5.0 as well after regeneration of the biosensor tips. […]
Note to self: use fulfilled only for kon readings below 600000 M⁻¹ s⁻¹; a reading exactly at 600000 M⁻¹ s⁻¹ still gets not fulfilled.

Examples with answers:
{"BINDER": "anti-CI-M6PR VHH1 (VHH, His6-tagged; made in Pichia pastoris, later also in E. coli WK6) VHH: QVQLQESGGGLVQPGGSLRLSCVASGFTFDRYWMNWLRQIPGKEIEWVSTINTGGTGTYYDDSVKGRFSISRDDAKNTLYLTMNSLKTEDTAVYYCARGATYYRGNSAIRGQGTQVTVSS", "ANSWER LABEL": "fulfilled"}
{"BINDER": "anti-CI-M6PR VHH3 (VHH, His6-tagged; made in Pichia pastoris) VHH: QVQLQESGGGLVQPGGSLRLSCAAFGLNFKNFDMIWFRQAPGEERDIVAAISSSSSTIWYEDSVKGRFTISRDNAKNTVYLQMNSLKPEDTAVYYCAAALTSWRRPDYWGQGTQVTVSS", "ANSWER LABEL": "fulfilled"}
{"BINDER": "anti-CI-M6PR VHH8 (VHH, His6-tagged (Pichia pastoris)) VHH: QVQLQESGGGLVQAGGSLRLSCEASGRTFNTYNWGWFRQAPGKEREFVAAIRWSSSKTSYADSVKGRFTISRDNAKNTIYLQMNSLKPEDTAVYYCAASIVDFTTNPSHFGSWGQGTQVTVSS", "ANSWER LABEL": "not fulfilled"}
{"BINDER": "anti-CI-M6PR VHH11 (VHH, His6-tagged; made in Pichia pastoris) VHH: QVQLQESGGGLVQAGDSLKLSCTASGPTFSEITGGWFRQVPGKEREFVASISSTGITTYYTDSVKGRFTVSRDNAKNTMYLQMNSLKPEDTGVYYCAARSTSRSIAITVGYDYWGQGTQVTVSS", "ANSWER LABEL": "fulfilled"}
{"BINDER": "anti-CI-M6PR VHH2 (VHH, His6-tagged; made in Pichia pastoris) VHH: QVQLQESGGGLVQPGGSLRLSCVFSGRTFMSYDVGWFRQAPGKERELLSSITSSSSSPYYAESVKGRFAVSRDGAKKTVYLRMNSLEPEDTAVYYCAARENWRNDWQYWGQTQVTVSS", "ANSWER LABEL": "not fulfilled"}
{"BINDER": "anti-CI-M6PR VHH6 (VHH, His6-tagged; made in E. coli) VHH: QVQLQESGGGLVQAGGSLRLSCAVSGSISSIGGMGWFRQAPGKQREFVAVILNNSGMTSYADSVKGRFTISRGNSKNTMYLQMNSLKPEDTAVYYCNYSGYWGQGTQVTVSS", "ANSWER LABEL": "not fulfilled"}

Query: In the record for anti-CI-M6PR VHH4 (VHH, His6-tagged; made in Pichia pastoris) VHH: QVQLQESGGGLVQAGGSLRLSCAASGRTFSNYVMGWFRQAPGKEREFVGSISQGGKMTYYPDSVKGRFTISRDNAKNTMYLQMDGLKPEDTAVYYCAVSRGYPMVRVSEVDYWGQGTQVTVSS , is kon less than 600000 M⁻¹ s⁻¹?
Result: fulfilled
